Test system: BoLA-1*023:01 class I molecule
experimentalProtocol: Peptide–MHC class I binding assay (ELISA of p-MHC monomer folding)
Set-up: species or system bovine
conditionInfo: Fig. 1B; 10-mer and peptides with 1 or 2 aa deletions at N- or C-terminal end
Description: Folding of p-MHC class I complexes was assessed with an ELISA assay as described by Svitek et al. ([34]). […] Colorimetric change was performed by adding the TMB Plus2 “Ready to Use” Substrate (cat # 4395H; Kem En Tec) for 10 min at room temperature. The reaction was stopped by adding H2SO4 (0.3 M), and OD was measured using a Synergy HT ELISA plate reader (BioTek) at 450 nm. […]
reportedMetric: Peptide binding to BoLA-1*023:01 (folding in ELISA), in words

{"sequenceChain": "AKFPGMKK [Tp9_67–74, 8-mer Tp9 peptide with 2 aa deleted at the C-terminal end]", "result": "showed binding"}
{"sequenceChain": "AKFPGMKKSK [Tp9_67–76, 10-mer peptide from the T. parva (Muguga) Tp9 Ag]", "result": "showed binding"}

====

targetOfAssay: BoLA-1*023:01 class I molecule
experimentalProtocol: Peptide–MHC class I binding assay (ELISA of p-MHC monomer folding)
Set-up: species or system bovine
conditionInfo: Fig. 2 upper panel; alanine/glycine-substituted Tp9_67–75; 25 nM BoLA-1*023:01, 150 nM bovine β2m, peptide 0–40 μM, 48 h 18°C; one-site specific binding fit; representative experiment, duplicates
reportedMetric: pKd
// returns pKd (minus log10 of molar concentration), number only

[in] Any idea what pKd was measured for Tp9G1: Tp9_67–75 Muguga with glycine at position 1 (GKFPGMKKS) ?
[out] 7.87

====

targetOfAssay: BoLA-1*023:01 class I molecule
experimentalProtocol: Peptide–MHC class I binding assay (ELISA of p-MHC monomer folding)
Parameters: species or system bovine
conditionInfo: Fig. 2 lower panel; alanine-substituted Tp9_67–75; 25 nM BoLA-1*023:01, 150 nM bovine β2m, peptide 0–40 μM, 48 h 18°C; one-site specific binding fit; representative experiment, duplicates
reportedMetric: Kd (nM)
Give the value in nM but do not write nM after it.

[in] Tell me the measured Kd of Tp9A9: Tp9_67–75 Muguga with alanine substitution at position 9 (AKFPGMKKA) , please.
[out] 15
